conditions: 303.15 K; 101 kPa; Liquid
reported.property: mass density (kg/m3)

INSERT INTO measurements (molecule, unit_spec, observed_result) VALUES
  ('CCCCCCCO [heptan-1-ol]', 'kg/m3', 815.7),
  ('C[S+](C)[O-] [dimethyl sulfoxide]', 'kg/m3', 1094.9),
  ('CCCCCCO [hexan-1-ol]', 'kg/m3', 811.8),
  ('CCCCO [butan-1-ol]', 'kg/m3', 802);

----------
assay: refractive index (Na D-line) (dimensionless); details: 303.15 K; 101.33 kPa; Liquid
reported.property: refractive index

INSERT INTO measurements (compound, reported_property, observed_result) VALUES
  ('CCCCCCO', 'refractive index', 1.4134),
  ('CCCCO', 'refractive index', 1.3946),
  ('CCCCCCCO', 'refractive index', 1.4201),
  ('C[S+](C)[O-] [dimethyl sulfoxide]', 'refractive index', 1.4751);

----------
details: 303.15 K; 101 kPa; Liquid
reported.property: speed of sound (m/s)

INSERT INTO assay_data (compound, unit_spec, observed_result) VALUES
  ('CCCCCCO [hexan-1-ol]', 'm/s', 1282),
  ('C[S+](C)[O-] [dimethyl sulfoxide]', 'm/s', 1490.9),
  ('CCCCO [butan-1-ol]', 'm/s', 1231),
  ('CCCCCCCO [heptan-1-ol]', 'm/s', 1306);
